I'd be grateful if you could share measured infectivity % under 10 ug/mL VHH treatment for these entries.
Target Desc: SARS-CoV-2 spike protein on pseudotyped lentivirus (Wuhan Reference Pseudovirus) (SARS-CoV-2, UniProt P0DTC2 14-1273)
Test Protocol: cell-based or functional assay
Your answer is read as %, so omit the unit and give the number.

# get_value(readout='infectivity % under 10 ug/mL VHH treatment', item= PP814 MBP-R2E-F4-H6 (VHH, Form: Monomer) VHH: QVQLVESGGGLVQPGGSLRLSCAASGETFSSNAMHWFRQAPGKGREFVAAITSGGNDNYSDSVKGRFTISRDNAKNTVYLQMNSLKPEDTAVYYCNAPATEDTSHYPRNYWGQGTQVTVSS )
84.7

Which infectivity % under 10 ug/mL VHH treatment is reported for this binder? PP833 MBP-R5C-F6-H6 (VHH, Form: Monomer) VHH: QVQLVESGGGLVQPGGSLRLSCAASGQTNSILAMHWYRQAPGKQREAVATITSGSNSTYADSVKGRFTISRDNAKNTVYLQMNSLKPEDTAVYYCAARNGKLSPKANQRLYWGQGTQVTVSS
86.2
